Exercise: state measured MIC VRE (E. faecalis) ATCC 51575 for each of the compounds provided.
Test system: VRE (E. faecalis) ATCC 51575
Type: cell-based, Enterococcus faecalis
SETTINGS: ATCC 51575, 18 h
Square brackets hold non-standard residues; d marks the D form. Peptide text beside a SMILES is read from it.
Numbers only, in µM.

[
  {
    "COMPOUND": "CC[C@@H](C)[C@@H](NC(=O)[C@@H](Cc1c[nH]c2ccccc12)NC(=O)[C@@H](CCCNC(=N)N)NC(=O)[C@@H](CCCNC(=N)N)NC(=O)[C@H](N)CCCNC(=N)N)C(=O)N[C@H](Cc1c[nH]c2ccccc12)C(=O)N[C@@H](C(=O)N[C@H](CC(C)C)C(=O)N[C@H](Cc1c[nH]c2ccccc12)C(=O)N[C@H](CCCCN)C(=O)N[C@H](CC(N)=O)C(N)=O)C(C)C [KSH68, rrrwiwvlwkn] (H-[dR][dR][dR][dW][dI][dW][dV][dL][dW][dK][dN]-NH2; N-terminus assumed)",
    "SYSTEM UNDER TEST": "VRE (E. faecalis) ATCC 51575",
    "MIC VRE (E. faecalis) ATCC 51575, µM": 1.25
  }
]

Proceeding to the next compound to report its MIC VRE (E. faecalis) ATCC 51575.
Data request: Short answer please: MIC VRE (E. faecalis) ATCC 51575, VRE (E. faecalis) ATCC 51575, entry CC(C)[C@@H](NC(=O)[C@@H](Cc1c[nH]c2ccccc12)NC(=O)[C@@H](CCCNC(=N)N)NC(=O)[C@@H](CCCNC(=N)N)NC(=O)[C@H](N)CCCNC(=N)N)C(=O)N[C@H](Cc1c[nH]c2ccccc12)C(=O)N[C@H](Cc1c[nH]c2ccccc12)C(=O)N[C@@H](C(=O)N[C@@H](C(=O)N[C@H](Cc1c[nH]c2ccccc12)C(N)=O)C(C)C)C(C)C [KSH80, rrrwvwwvvw] (H-[dR][dR][dR][dW][dV][dW][dW][dV][dV][dW]-NH2; N-terminus assumed)
Data returned: 1.25

----------
Tested on: VRE (E. faecalis) ATCC 51575
Format: cell-based, Enterococcus faecalis
SETTINGS: ATCC 51575, 18 h
Square brackets hold non-standard residues; d marks the D form. Peptide text beside a SMILES is read from it. * marks the point of attachment. dTrp(5-OMe) = COc1ccc2[nH]cc(C[C@@H](N)C(=O)O)c2c1; Decanoyl = CCCCCCCCCC(=O)*
Can you tell me MIC VRE (E. faecalis) ATCC 51575 for the items I'm about to list?
One number for each entry, in µM.

// known answers, use as guide
[
  {
    "MOLECULE": "CC[C@@H](C)[C@@H](NC(=O)[C@@H](Cc1c[nH]c2ccccc12)NC(=O)[C@@H](CCCNC(=N)N)NC(=O)[C@@H](CCCNC(=N)N)NC(=O)[C@H](N)CCCNC(=N)N)C(=O)N[C@H](Cc1c[nH]c2ccccc12)C(=O)N[C@@H](C(=O)N[C@H](CC(C)C)C(=O)N[C@H](Cc1c[nH]c2ccccc12)C(N)=O)C(C)C [KSH73, rrrwiwvlw] (H-[dR][dR][dR][dW][dI][dW][dV][dL][dW]-NH2; N-terminus assumed)",
    "SYSTEM UNDER TEST": "VRE (E. faecalis) ATCC 51575",
    "READOUT VALUE": 1.25
  },
  {
    "MOLECULE": "CC[C@@H](C)[C@@H](NC(=O)[C@@H](Cc1c[nH]c2ccccc12)NC(=O)[C@@H](CC(C)C)NC(=O)[C@@H](CC(C)C)NC(=O)[C@H](N)Cc1c[nH]c2ccc(OC)cc12)C(=O)NCC(=O)N[C@H](CC(C)C)C(=O)N[C@H](CCCNC(=N)N)C(=O)N[C@H](CCCCN)C(=O)N[C@H](CCCCN)C(=O)N[C@H](CCCNC(=N)N)C(N)=O [KSH15, wMllwiglrkkr] (H-[dTrp(5-OMe)][dL][dL][dW][dI]G[dL][dR][dK][dK][dR]-NH2; N-terminus assumed)",
    "SYSTEM UNDER TEST": "VRE (E. faecalis) ATCC 51575",
    "READOUT VALUE": 2.5
  },
  {
    "MOLECULE": "CC[C@@H](C)[C@@H](NC(=O)[C@@H](Cc1c[nH]c2ccccc12)NC(=O)[C@H](NC(=O)[C@@H](Cc1c[nH]c2ccccc12)NC(=O)[C@@H](CCCNC(=N)N)NC(=O)[C@@H](CCCNC(=N)N)NC(=O)[C@H](N)CCCNC(=N)N)[C@H](C)CC)C(=O)N[C@H](CC(C)C)C(=O)N[C@H](Cc1c[nH]c2ccccc12)C(N)=O [KSH59, rrrwiwilw] (H-[dR][dR][dR][dW][dI][dW][dI][dL][dW]-NH2; N-terminus assumed)",
    "SYSTEM UNDER TEST": "VRE (E. faecalis) ATCC 51575",
    "READOUT VALUE": 0.63
  }
]

Provide the reported MIC VRE (E. faecalis) ATCC 51575 of each entry below, same order.
1. CC(C)[C@@H](NC(=O)[C@@H](Cc1c[nH]c2ccccc12)NC(=O)[C@@H](CCCNC(=N)N)NC(=O)[C@@H](CCCNC(=N)N)NC(=O)[C@H](N)CCCNC(=N)N)C(=O)N[C@H](Cc1c[nH]c2ccccc12)C(=O)N[C@@H](C(=O)N[C@@H](C(=O)N[C@@H](C(=O)N[C@H](Cc1c[nH]c2ccccc12)C(N)=O)C(C)C)C(C)C)C(C)C [KSH82, rrrwvwvvvw] (H-[dR][dR][dR][dW][dV][dW][dV][dV][dV][dW]-NH2; N-terminus assumed)
2. CCCCCCCCCC(=O)NCCCC[C@@H](N)C(=O)N[C@H](Cc1c[nH]c2ccccc12)C(=O)N[C@H](CC(C)C)C(=O)N[C@H](CC(C)C)C(=O)N[C@H](Cc1c[nH]c2ccccc12)C(=O)N[C@@H](C(=O)NCC(=O)N[C@H](CC(C)C)C(=O)N[C@H](CCCNC(=N)N)C(=O)N[C@H](CCCCN)C(=O)N[C@H](CCCCN)C(=O)N[C@H](CCCNC(=N)N)C(N)=O)[C@H](C)CC [KSH10, kwllwiglrkkr] (H-[dK](Decanoyl)[dW][dL][dL][dW][dI]G[dL][dR][dK][dK][dR]-NH2; N-terminus assumed)
3. CC(C)C[C@@H](NC(=O)[C@H](N)Cc1c[nH]c2ccccc12)C(=O)N[C@@H](C(=O)N[C@H](Cc1c[nH]c2ccccc12)C(=O)N[C@H](CCCCN)C(=O)N[C@H](Cc1c[nH]c2ccccc12)C(=O)N[C@H](CCCNC(=N)N)C(=O)N[C@H](CCCNC(=N)N)C(=O)N[C@H](CCCNC(=N)N)C(N)=O)C(C)C [KSH37, wlvwkwrrr] (H-[dW][dL][dV][dW][dK][dW][dR][dR][dR]-NH2; N-terminus assumed)
4. CCCCCCCCCC(=O)NCCCC[C@@H](NC(=O)[C@@H](CCCCN)NC(=O)[C@@H](CCCNC(=N)N)NC(=O)[C@@H](CC(C)C)NC(=O)[C@@H](C)NC(=O)[C@H](NC(=O)[C@@H](Cc1c[nH]c2ccccc12)NC(=O)[C@@H](CC(C)C)NC(=O)[C@@H](CC(C)C)NC(=O)[C@H](N)Cc1c[nH]c2ccccc12)[C@H](C)CC)C(=O)N[C@H](CCCNC(=N)N)C(N)=O [KSH4, wllwialrkkr] (H-[dW][dL][dL][dW][dI][dA][dL][dR][dK][dK](Decanoyl)[dR]-NH2; N-terminus assumed)
5. CC[C@@H](C)[C@@H](NC(=O)[C@@H](Cc1c[nH]c2ccccc12)NC(=O)[C@@H](CCCCN)NC(=O)[C@@H](CCCNC(=N)N)NC(=O)[C@H](N)CCCNC(=N)N)C(=O)N[C@H](Cc1c[nH]c2ccccc12)C(=O)N[C@H](Cc1c[nH]c2ccccc12)C(=O)N[C@H](CC(C)C)C(=O)N[C@H](Cc1c[nH]c2ccccc12)C(=O)N[C@H](CCCCN)C(=O)N[C@H](CCCCN)C(=O)N[C@H](CCCCN)C(N)=O [KSH52, rrkwiwwlwkkk] (H-[dR][dR][dK][dW][dI][dW][dW][dL][dW][dK][dK][dK]-NH2; N-terminus assumed)
6. CC[C@@H](C)[C@@H](NC(=O)[C@@H](Cc1c[nH]c2ccccc12)NC(=O)[C@@H](CC(C)C)NC(=O)[C@H](N)CC(C)C)C(=O)NCC(=O)N[C@H](CC(C)C)C(=O)N[C@H](CCCNC(=N)N)C(=O)N[C@H](CCCCN)C(=O)N[C@H](CCCCN)C(=O)N[C@H](CCCNC(=N)N)C(N)=O [KSH13, llwiglrkkr] (H-[dL][dL][dW][dI]G[dL][dR][dK][dK][dR]-NH2; N-terminus assumed)

Data returned:
1.25
5
5
5
5
40
